tested-system: human Gal-1 (hGal-1)
Sequence (P09382 2-135 limits assumed): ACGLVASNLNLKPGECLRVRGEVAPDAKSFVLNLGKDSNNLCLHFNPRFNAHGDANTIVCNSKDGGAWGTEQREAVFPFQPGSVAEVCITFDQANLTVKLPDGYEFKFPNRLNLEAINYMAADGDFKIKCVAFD
protocol: Competitive binding assay: biotinylated hGal-1 binding to microplate-adsorbed asialofetuin (ASF)
measurement-conditions: Activity on hGal-1; binding of biotinylated hGal-1 to ASF-coated plates; mean values
observation-type: log10 of IC50 (log10 of the value in nM)
Reminder: these figures are log10 of reported IC50, in nM before transformation.

Ask | Identify measured log10 of IC50 corresponding to O=C(CO[C@@H]1[C@@H](n2cc(-c3cc(F)c(F)c(F)c3)nn2)[C@@H](O)[C@@H](CO)O[C@H]1C(=O)N(c1cc(Cl)cc(Cl)c1)[C@H]1CCCC[C@@H]1O)N1CCC(O)CC1
Reply | 2.26

Ask | Return reported log10 of IC50. Input compound: CO[C@@H]1[C@@H](n2cc(-c3ccc(Br)c(F)c3F)nn2)[C@@H](O)[C@@H](CO)O[C@H]1C(=O)N(c1cc(Cl)cc(C#N)c1)[C@H]1CCCC[C@@H]1O
Reply | 2.59

Ask | Indicate the recorded log10 of IC50 value for this compound: CO[C@@H]1[C@@H](n2cc(-c3ccc(C)c(F)c3F)nn2)[C@@H](O)[C@@H](CO)O[C@H]1C(=O)N(c1cc(Cl)cc(C#N)c1)[C@H]1CCCC[C@@H]1O
Reply | 2.38

Ask | Specify reported log10 of IC50 for the compound shown: CO[C@@H]1[C@@H](n2cc(-c3cccc(F)c3C)nn2)[C@@H](O)[C@@H](CO)O[C@H]1C(=O)N(c1cc(Cl)cc(C#N)c1)[C@H]1CCCC[C@@H]1O
Reply | 2.41

Ask | Name the recorded log10 of IC50 of the item CO[C@@H]1[C@@H](n2cc(-c3cc(F)c(F)c(F)c3)nn2)[C@@H](O)[C@@H](CO)O[C@H]1C(=O)N(Cc1scnc1C)[C@H]1CCCC[C@@H]1O in your answer.
Reply | 3.01

Ask | Respond only with log10 of IC50 recorded for COc1cc(C#N)cc(N(C(=O)[C@@H]2O[C@H](CO)[C@H](O)[C@H](n3cc(-c4ccc(C#N)c(F)c4)nn3)[C@H]2OC)[C@H]2CCCC[C@@H]2O)c1
Reply | 3.26

Ask | Provide log10 of IC50 value for the following compound: COc1ncnc(OC)c1CN(C(=O)[C@@H]1O[C@H](CO)[C@H](O)[C@H](n2cc(-c3cc(F)c(F)c(F)c3)nn2)[C@H]1O)[C@H]1CCCC[C@@H]1O
Reply | 3.60

Ask | Tell me its log10 of IC50 given CO[C@@H]1[C@@H](n2cc(-c3cc(F)c(F)c(F)c3)nn2)[C@@H](O)[C@@H](CO)O[C@H]1C(=O)N(c1cc(F)cc(Cl)c1)[C@H]1CCCC[C@@H]1O as the entry.
Reply | 2.65

Ask | Please look at this compound and report its log10 of IC50: COc1cc(C#N)cc(N(C(=O)[C@@H]2O[C@H](CO)[C@H](O)[C@H](n3cc(-c4cc(F)c(F)c(F)c4)nn3)[C@H]2OC)[C@H]2CCCC[C@@H]2O)c1
Reply | 3.20

Ask | Give the reported log10 of IC50 for this compound. CO[C@@H]1[C@@H](n2cc(-c3cc(F)c(F)c(F)c3)nn2)[C@@H](O)[C@@H](CO)O[C@H]1C(=O)N(Cc1cc(C)nn1C)[C@H]1CCCC[C@@H]1O
Reply | 3.02

Ask | Specify log10 of IC50 for CO[C@@H]1[C@@H](n2cc(-c3ccc(Br)cc3)nn2)[C@@H](O)[C@@H](CO)O[C@H]1C(=O)N(c1cc(Cl)cc(C#N)c1)[C@H]1CCCC[C@@H]1O and stop.
Reply | 2.53

Ask | Specify log10 of IC50 for O=C([C@@H]1O[C@H](CO)[C@H](O)[C@H](n2cc(-c3cc(F)c(F)c(F)c3)nn2)[C@H]1O)N(Cc1cnccc1C(F)(F)F)[C@H]1CCCC[C@@H]1O and stop.
Reply | 3.23

Ask | Give the reported log10 of IC50 for this compound. CO[C@@H]1[C@@H](n2cc(-c3cc(F)c(F)c(F)c3)nn2)[C@@H](O)[C@@H](CO)O[C@H]1C(=O)N(c1ccc2ccsc2c1)[C@H]1CCCC[C@@H]1O
Reply | 3.09

Ask | State, in one line, measured log10 of IC50 of CO[C@@H]1[C@@H](n2cc(-c3cc(F)c(F)c(F)c3)nn2)[C@@H](O)[C@@H](CO)O[C@H]1C(=O)N(c1ccc2ccccc2c1)[C@H]1CCCC[C@@H]1O
Reply | 3.83

Ask | Give a short answer stating reported log10 of IC50 for CO[C@@H]1[C@@H](n2cc(-c3cc(F)c(F)c(F)c3)nn2)[C@@H](O)[C@@H](CO)O[C@H]1C(=O)N(Cc1ncccc1C(F)(F)F)[C@H]1CCCC[C@@H]1O .
Reply | 3.69

Ask | Please supply the value of reported log10 of IC50 for the item O=C([C@@H]1O[C@H](CO)[C@H](O)[C@H](n2cc(-c3cc(F)c(F)c(F)c3)nn2)[C@H]1O)N(Cc1cnc(N2CCOCC2)s1)[C@H]1CCCC[C@@H]1O
Reply | 4.03

Ask | Identify measured log10 of IC50 associated with CO[C@@H]1[C@@H](n2cc(-c3cc(F)c(F)c(F)c3)nn2)[C@@H](O)[C@@H](CO)O[C@H]1C(=O)N(c1cc(Cl)ccc1C)[C@H]1CCCC[C@@H]1O
Reply | 1.88

Ask | For the compound CO[C@@H]1[C@@H](n2cc(-c3ccc4nc(C)sc4c3)nn2)[C@@H](O)[C@@H](CO)O[C@H]1C(=O)N(c1cc(Cl)cc(Cl)c1)[C@H]1CCCC[C@@H]1O , give its measured log10 of IC50 value.
Reply | 3.06

Ask | Write down log10 of IC50 measured for item CO[C@@H]1[C@@H](n2cc(-c3ccc(Br)c(F)c3F)nn2)[C@@H](O)[C@@H](CO)O[C@H]1C(=O)N(c1cc(F)cc(C#N)c1)[C@H]1CCCC[C@@H]1O
Reply | 2.83

Ask | Supply recorded log10 of IC50 for CO[C@@H]1[C@@H](n2cc(-c3cc(F)cc(Br)c3)nn2)[C@@H](O)[C@@H](CO)O[C@H]1C(=O)N(c1cc(C)cc(C#N)c1)[C@H]1CCCC[C@@H]1O here.
Reply | 2.88
